- target-or-test-system: human CYP1A2, CYP1A2 (gene 1544)
- protocol-details: NVS_ADME_hCYP1A2: NovaScreen (NVS) CYP450-related Enzyme Activity (ADME) Assay for human CYP1A2 (AID 2283102)
Activity calls are given as the source filed them. The calls were made as follows: active = hit-call score of the fitted dose curve at least 0.9, where 1 is the maximum; inconclusive = response in the unintended direction; inactive = score below 0.9.
In this exercise, the only acceptable responses are active, inactive

[in] // outcome(item) with item = CCOC(=O)C(C)Oc1ccc(Oc2nc3ccc(Cl)cc3o2)cc1 (configuration not stated)
[out] inactive

[in] // outcome(item) with item = c1ccc2[nH]c(-c3cscn3)nc2c1
[out] active

[in] // outcome(item) with item = CCCCC(CC)CN1C(=O)C2C3C=CC(C3)C2C1=O (configuration not stated)
[out] active

[in] // outcome(item) with item = C#CCOC(=O)[C@@H](C)Oc1ccc(Oc2ncc(Cl)cc2F)cc1
[out] active

[in] // outcome(item) with item = O=C(c1ccc(O)cc1O)c1ccc(O)cc1O
[out] active

[in] // outcome(item) with item = CCCCCOC(=O)COc1cc(N2C(=O)C3=C(CCCC3)C2=O)c(F)cc1Cl
[out] active

[in] // outcome(item) with item = N#CSCSc1nc2ccccc2s1
[out] active

[in] // outcome(item) with item = COC(=O)c1ccccc1S(=O)(=O)NC(=O)Nc1nc(OC(F)F)cc(OC(F)F)n1
[out] active

[in] // outcome(item) with item = CCCCOCCOCCOCc1cc2c(cc1CCC)OCO2
[out] active

[in] // outcome(item) with item = COC(=O)CSc1cc(N=c2sc(=O)n3n2CCCC3)c(F)cc1Cl
[out] inactive

[in] // outcome(item) with item = CCOC(=O)[C@H](C)Oc1ccc(Oc2nc3ccc(Cl)cc3o2)cc1
[out] inactive

[in] // outcome(item) with item = CSC(=O)c1cccc2nnsc12
[out] active

* * *

- protocol-details: Tanguay_ZF_120hpf_SNOU_legacy: (Legacy) Oregon State University Tanguay Lab 120 Hour Post-fertilization zebrafish Assay for Snout Malformation (AID 2283637)
Results filed as inconclusive are left out. Calls of active or inactive are those of the source. The calls were made as follows: active = hit-call score of the fitted dose curve at least 0.9, where 1 is the maximum; inconclusive = response in the unintended direction; inactive = score below 0.9.
measured-parameter: AC50

Previously resolved entries follow.
>  <molecule>
N[C@@H](Cc1cc(I)c(Oc2ccc(O)c(I)c2)c(I)c1)C(=O)O

>  <AC50>
0.00111 µM (active)

$$$$
>  <molecule>
CCOC(=O)c1ccc(O)cc1

>  <AC50>
24.5 µM (active)

$$$$
>  <molecule>
CCCN(CCC)c1c([N+](=O)[O-])cc(C(F)(F)F)c(N)c1[N+](=O)[O-]

>  <AC50>
inactive

$$$$
>  <molecule>
COCCO

>  <AC50>
inactive

$$$$

Now for another entry.
GET /value?item= CCOC(=O)C(C)Oc1ccc(Oc2cnc3cc(Cl)ccc3n2)cc1 (stereo not given) &field=AC50 returns inactive

* * *

- Test system: zebrafish Peroxisome Proliferator-activated Receptor gamma (PPARg), gene 557037
- protocol-details: ATG_zfPPARg_XSP2: Attagene TRANS-FACTORIAL Multi-Species (XSP2) HepG2 Assay for zebrafish Peroxisome Proliferator-activated Receptor gamma (PPARg) (AID 2283833);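 also: reporter mRNA from a zebrafish PPARg GAL4 chimera measured by RT-PCR and capillary electrophoresis; actives increase reporter signal over DMSO so AC50 reflects activation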
Records with an inconclusive call do not appear. Active and inactive are the calls of the source. How the source made its calls: active means hit-call score of the fitted dose curve at least 0.9, where 1 is the maximum; inconclusive means response in the unintended direction; inactive means score below 0.9.
In this exercise, the only acceptable responses are active, inactive

[in] // outcome(item) with item = CCCCC(CC)COC(=O)c1ccccc1C(=O)O (stereo unspecified)
[out] active

[in] // outcome(item) with item = C=CCOC(Cn1ccnc1)c1ccc(Cl)cc1Cl (stereo unspecified)
[out] inactive

[in] // outcome(item) with item = N[C@@H](Cc1cc(I)c(Oc2ccc(O)c(I)c2)c(I)c1)C(=O)O
[out] inactive

[in] // outcome(item) with item = CC(C)(c1ccc(O)cc1)c1ccc(O)cc1
[out] inactive

[in] // outcome(item) with item = CC1(C)C(C=C(Cl)Cl)C1C(=O)OCc1cccc(Oc2ccccc2)c1 (stereo unspecified)
[out] inactive

[in] // outcome(item) with item = CN(C)C(=O)Nc1ccc(Cl)c(Cl)c1
[out] inactive

* * *

- Read-out: Tissue Factor, F3 (gene 2152)
- protocol-details: BSK_LPS_TissueFactor: BioMAP Diversity Plus: LPS Assay for Tissue Factor Biomarker Activity (AID 2283084)
- run-conditions: primary human HUVEC with PBMC; actives raise or lower the signal
Calls of active or inactive are those of the source. How the source made its calls: active means hit-call score of the fitted dose curve at least 0.9, where 1 is the maximum; inactive means score below 0.9.
In this exercise, the only acceptable responses are 1 (active), -1 (inactive)

[in] // outcome(item) with item = CCCN(CCC)C(=O)SCC
[out] -1

[in] // outcome(item) with item = CCCCOCCOCCOCc1cc2c(cc1CCC)OCO2
[out] -1

[in] // outcome(item) with item = COCCO
[out] -1

[in] // outcome(item) with item = O=C(O)c1ccccc1
[out] -1

[in] // outcome(item) with item = CC(C)(c1ccc(O)cc1)c1ccc(O)cc1
[out] -1

[in] // outcome(item) with item = c1ccc(Nc2ccccc2)cc1
[out] -1

[in] // outcome(item) with item = CSC(=O)c1cccc2nnsc12
[out] -1

[in] // outcome(item) with item = CC(C)CCCCCCc1ccc(O)cc1
[out] 1

[in] // outcome(item) with item = CCCCCOC(=O)COc1cc(N2C(=O)C3=C(CCCC3)C2=O)c(F)cc1Cl
[out] 1

[in] // outcome(item) with item = CCOC(=O)C(C)Oc1ccc(Oc2cnc3cc(Cl)ccc3n2)cc1 (stereo not drawn)
[out] -1

[in] // outcome(item) with item = CCCCCCC(C)OC(=O)COc1nc(F)c(Cl)c(N)c1Cl (stereo not drawn)
[out] 1

[in] // outcome(item) with item = COC(=O)c1ccccc1C(=O)O
[out] -1

[in] // outcome(item) with item = O=C(c1ccc(O)cc1O)c1ccc(O)cc1O
[out] -1

[in] // outcome(item) with item = CCNc1nc(N)nc(Cl)n1
[out] -1

[in] // outcome(item) with item = CCOC(=O)[C@H](C)Oc1ccc(Oc2nc3ccc(Cl)cc3o2)cc1
[out] -1

[in] // outcome(item) with item = N[C@@H](Cc1cc(I)c(Oc2ccc(O)c(I)c2)c(I)c1)C(=O)O
[out] 1

[in] // outcome(item) with item = COC(=O)c1ccc(CNS(C)(=O)=O)cc1S(=O)(=O)NC(=O)Nc1nc(OC)cc(OC)n1
[out] -1

[in] // outcome(item) with item = O=C(c1ccccc1)C1CCCCC1
[out] -1

[in] // outcome(item) with item = C#C[C@]1(O)CC[C@H]2[C@@H]3CCC4=CC(=O)CC[C@@H]4[C@H]3CC[C@@]21CC
[out] -1

[in] // outcome(item) with item = COC(=O)c1cccc(C)c1S(=O)(=O)NC(=O)Nc1nc(OCC(F)(F)F)nc(N(C)C)n1
[out] -1

[in] // outcome(item) with item = CCN(Cc1c(F)cccc1Cl)c1c([N+](=O)[O-])cc(C(F)(F)F)cc1[N+](=O)[O-]
[out] -1

[in] // outcome(item) with item = CCOC(=O)COc1cc(-n2ncc(C(F)(F)F)c(C)c2=O)c(F)cc1Cl
[out] -1

[in] // outcome(item) with item = C[C@]12C[C@H](O)[C@H]3[C@@H](CCC4=CC(=O)CC[C@@]43C)[C@@H]1CC[C@@H]2C(=O)CO
[out] -1

* * *

- protocol-details: ATG_EGR_CIS: Attagene CIS-FACTORIAL HepG2 Assay for human Early Growth Response 1 (EGR1) (AID 2282938)
- run-conditions: HepG2 Attagene CIS-FACTORIAL EGR reporter mRNA; actives raise or lower the signal
Active and inactive are the calls of the source. Rule for the calls: active = hit-call score of the fitted dose curve at least 0.9, where 1 is the maximum; inactive = score below 0.9.
In this exercise, the only acceptable responses are 1 (yes) (active), 0 (no) (inactive)

[in] // outcome(item) with item = CCCN(CCC)C(=O)SCC
[out] 0 (no)

[in] // outcome(item) with item = C#CCOC(=O)[C@@H](C)Oc1ccc(Oc2ncc(Cl)cc2F)cc1
[out] 0 (no)

[in] // outcome(item) with item = CCCCOC(=O)C(C)Oc1ccc(Oc2ccc(C(F)(F)F)cn2)cc1 (configuration not stated)
[out] 0 (no)

[in] // outcome(item) with item = Cc1nn(C)c(Oc2ccccc2)c1C=NOCc1ccc(C(=O)OC(C)(C)C)cc1
[out] 1 (yes)

[in] // outcome(item) with item = O=C(O)c1ccccc1
[out] 0 (no)

[in] // outcome(item) with item = Oc1ccc(C(c2ccc(O)cc2)C(Cl)(Cl)Cl)cc1
[out] 0 (no)

[in] // outcome(item) with item = CCOC(=O)C(C)Oc1ccc(Oc2cnc3cc(Cl)ccc3n2)cc1 (configuration not stated)
[out] 0 (no)

* * *

- protocol-details: APR_HepG2_MitoticArrest_72hr: Apredica 72-hour HepG2 Assay for Mitotic Arrest (AID 2282918)
- run-conditions: high-content imaging, actives raise or lower the signal
Activity calls are given as the source filed them. How the source made its calls: active means hit-call score of the fitted dose curve at least 0.9, where 1 is the maximum; inactive means score below 0.9.
measured-parameter: AC50

Previously resolved entries follow.
>  <molecule>
COC(=O)c1ccc(CNS(C)(=O)=O)cc1S(=O)(=O)NC(=O)Nc1nc(OC)cc(OC)n1

>  <AC50>
inactive

$$$$
>  <molecule>
CCCCCOC(=O)COc1cc(N2C(=O)C3=C(CCCC3)C2=O)c(F)cc1Cl

>  <AC50>
inactive

$$$$
>  <molecule>
CCCCOC(=O)[C@@H](C)Oc1ccc(Oc2ccc(C(F)(F)F)cn2)cc1

>  <AC50>
inactive

$$$$
>  <molecule>
CCCN(CCC)C(=O)SCC

>  <AC50>
inactive

$$$$

GET /value?item= COC(=O)c1ccc(I)cc1S(=O)(=O)NC(=O)Nc1nc(C)nc(OC)n1 &field=AC50 returns inactive

GET /value?item= CSC(=O)c1cccc2nnsc12 &field=AC50 returns inactive

GET /value?item= O=C(O)c1ccccc1 &field=AC50 returns inactive
